Below: a set of entries, each annotated with reported inhibition.
Target: PEG-3 (UniProt Q6IN02)
Sequence (Q6IN02 whole entry, looked up): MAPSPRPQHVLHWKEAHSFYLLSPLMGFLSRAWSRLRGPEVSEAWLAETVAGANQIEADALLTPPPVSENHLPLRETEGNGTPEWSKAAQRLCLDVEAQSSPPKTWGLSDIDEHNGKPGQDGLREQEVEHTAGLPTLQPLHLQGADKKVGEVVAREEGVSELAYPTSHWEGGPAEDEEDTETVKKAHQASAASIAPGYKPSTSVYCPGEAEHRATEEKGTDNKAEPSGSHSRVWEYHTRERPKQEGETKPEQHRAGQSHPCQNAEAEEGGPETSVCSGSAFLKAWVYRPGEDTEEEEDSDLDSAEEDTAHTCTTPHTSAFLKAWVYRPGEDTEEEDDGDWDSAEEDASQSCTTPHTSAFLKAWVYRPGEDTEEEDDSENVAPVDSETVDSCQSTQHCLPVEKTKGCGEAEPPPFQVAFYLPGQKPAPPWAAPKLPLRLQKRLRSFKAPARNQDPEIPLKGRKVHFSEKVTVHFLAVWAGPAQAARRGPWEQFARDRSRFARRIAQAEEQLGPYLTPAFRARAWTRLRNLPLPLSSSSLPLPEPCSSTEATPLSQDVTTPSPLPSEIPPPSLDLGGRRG
Experiment: Peg3 promoter luciferase inhibitors, potency, dose response, cell-based, HeLa, CREF/GAPDH counter-screen panel (AID 624167)
Settings: CREF/GAPDH counter-screens; HeLa PEG-Prom luciferase reporter, overnight, run 2, dose range 1, at 100 µM (top of the series) unless noted
Please respond with the number in % and leave the unit unwritten.

Known inhibition results, listed for orientation:
MOLECULE | VALUE_OBSERVED
CN(C)c1ccc(/C=C/c2ccc3c4ccccc4ccc3[n+]2-c2ccccc2)cc1 | 98.8
COc1ccc2sc(N(CCCN(C)C)C(=O)c3ccc(S(=O)(=O)N4CCCc5ccccc54)cc3)nc2c1 | 102
COc1ccc(C(=O)Nc2nc3ccccc3s2)c(OC)c1 | 98.8
CCOC(=O)c1c(C)[nH]c(C(=O)OCC(=O)Nc2sccc2C(N)=O)c1C | 101
CCCC(=O)N1CCCC(c2cc(C(=O)Nc3ccccc3)no2)C1 (stereo not given) | 90.8
COc1ccc(CNC(=O)Nc2nc(C(N)Cc3ccc(F)cc3)cs2)cc1 (stereo not given) | 101
Cc1ccc(C(=O)O/N=C(\N)c2ccccn2)cc1 | 100
CC(=O)Nc1ccc(NC(=O)c2nc(S(=O)(=O)Cc3cccc(C)c3)ncc2Cl)cc1 | 97.4
COc1cc(OC)c(OC)cc1CCC(C)NCCC(c1ccccc1)c1ccccc1 (stereo not given) | 96.7

Below: the item to evaluate.
So what does the record say about inhibition for NC(N)=N/N=C/c1cccc(Cl)c1Cl ?
99.4

----------
Below: a set of entries, each annotated with reported activity, % sensitization.
Molecular target: Tumor necrosis factor receptor superfamily member 10B (Homo sapiens) (UniProt O14763)
Sequence (O14763 whole entry, looked up): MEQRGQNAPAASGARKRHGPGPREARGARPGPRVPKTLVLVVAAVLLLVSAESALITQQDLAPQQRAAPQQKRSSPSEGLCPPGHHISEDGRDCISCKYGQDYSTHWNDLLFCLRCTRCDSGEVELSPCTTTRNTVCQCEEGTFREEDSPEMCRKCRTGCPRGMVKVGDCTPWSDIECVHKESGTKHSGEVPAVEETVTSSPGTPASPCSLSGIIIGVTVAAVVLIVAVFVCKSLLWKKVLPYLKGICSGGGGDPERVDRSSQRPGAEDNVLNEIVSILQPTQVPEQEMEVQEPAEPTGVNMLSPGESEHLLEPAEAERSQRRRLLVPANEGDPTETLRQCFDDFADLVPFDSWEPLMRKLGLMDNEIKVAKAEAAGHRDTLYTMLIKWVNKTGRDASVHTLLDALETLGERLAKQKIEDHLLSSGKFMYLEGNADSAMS
Assay: TRAIL sensitizers in caspase-8 expressing neuroblastoma cells, dose response, NB7 cells plus caspase-8, luminescence, panel (AID 652002)
Conditions: NB7 neuroblastoma +caspase-8, TRAIL sensitization, luminescence viability, NB7+Caspase-8, with TRAIL, run 2; at 12.5 µM (top of the series)
Please respond with the number in % and leave the unit unwritten.

Test system Tumor necrosis factor receptor superfamily member 10B (Homo sapiens) (UniProt O14763); read-out activity, % sensitization; what value for CN(C)S(=O)(=O)c1ccc(C(=O)Nc2nnc(SCC(=O)NCC3CCCO3)s2)cc1 (stereo unspecified) ?
32.3

Test system Tumor necrosis factor receptor superfamily member 10B (Homo sapiens) (UniProt O14763); read-out activity, % sensitization; what value for CC(=O)c1ccc(NC(=O)Nc2cccnc2)cc1 ?
44.9

Test system Tumor necrosis factor receptor superfamily member 10B (Homo sapiens) (UniProt O14763); read-out activity, % sensitization; what value for CCN(CC)S(=O)(=O)c1ccc(C(=O)OCC(=O)Nc2ccc(-c3nc4ccc(C)cc4s3)cc2)cc1 ?
-0.711

Test system Tumor necrosis factor receptor superfamily member 10B (Homo sapiens) (UniProt O14763); read-out activity, % sensitization; what value for O=C(NC(=O)c1ccccc1)Nc1ccccc1 ?
6.32

Test system Tumor necrosis factor receptor superfamily member 10B (Homo sapiens) (UniProt O14763); read-out activity, % sensitization; what value for O=C1CCCc2nc(N3CCc4ccccc43)ncc21 ?
-9.35

Test system Tumor necrosis factor receptor superfamily member 10B (Homo sapiens) (UniProt O14763); read-out activity, % sensitization; what value for Cc1cc2nc(-c3ccc(SCC(=O)Nc4nccs4)nc3)[nH]c2cc1C ?
48.9

----------
Assay: inhibitors of PAF-induced NFkB signaling in CF airway cells, dose response, cell-based, uHTS hits, panel, cytotoxicity readout (AID 624344)
Details: CF bronchial epithelial cells, PAF-induced NFkB reporter inhibition, with PAF, run 1; at 79 µM (top of the series) unless noted
REPORTED_PROPERTY: inhibition (%)
Please respond with the number in % and leave the unit unwritten.

Known inhibition results, listed for orientation:
MOLECULE | READING_UNIT | inhibition
COc1ccc(C2=Nn3c(nnc3-c3ccncc3)SC2)cc1 | % | 81.7
O=C(NCCc1ccccc1)c1coc(=O)c(Br)c1 | % | 84
C=C1C(=O)O[C@H]2C[C@H]1[C@@H](OC(C)=O)C/C(C)=C/CC/C(C)=C\CC[C@]2(C)O | % | 107

So what does the record say about inhibition for NC(=O)c1nsc(C(=O)N(c2ccccc2)C(C(=O)NCc2ccc(F)cc2)c2ccc(O)cc2)c1N (stereo not given) ?
102

So what does the record say about inhibition for Cc1[nH]nc2c1-c1nc3ccccc3nc1C(C)(C)C2 ?
113

----------
Experiment: inhibitors of PAF-induced NFkB signaling in CF airway cells, dose response, cell-based, uHTS hits, panel, cytotoxicity readout (AID 624344)
Conditions: CF bronchial epithelial cells, PAF-induced NFkB reporter inhibition, with PAF, run 2; at 79 µM (top of the series) unless noted
Below: a set of entries, each annotated with reported inhibition.
Please respond with the number in % and leave the unit unwritten.

Known inhibition results, listed for orientation:
COMPOUND | REPORTED_PROPERTY | VALUE_OBSERVED
COc1cccc2sc(N(CCCN(C)C)C(=O)CCS(=O)(=O)c3ccccc3)nc12 | inhibition | 86.9
CC(=C/c1ccccc1)/C=N/n1c(-c2ccncc2)n[nH]c1=S | inhibition | 103
CC1Cc2ccccc2N1c1ncnc2nc[nH]c12 (stereo unspecified) | inhibition | 106
O=C(NNC(=S)Nc1cccc(C(F)(F)F)c1)c1cccc(Cl)c1 | inhibition | 93.8
Cc1ccc(C(=O)Nc2cccc(C(F)(F)F)c2)cc1NC(=O)c1nccnc1N | inhibition | 76
O=[N+]([O-])c1cc([N+](=O)[O-])c2oc(-c3ccccc3)c(Br)c2c1O | inhibition | 107
Cc1nc2sc(C(N)=O)c(N)c2c2c1CCCC2 | inhibition | 104
COc1ccc(-n2nc(C(=O)NCC(=O)Nc3cc(OC)c(OC)c(OC)c3)c3ccccc3c2=O)cc1OC | inhibition | 101

So what does the record say about inhibition for C=C1C(=O)O[C@@H]2[C@H]1CC[C@H](C)[C@]1(O)CCC(=O)[C@@]21C ?
108

So what does the record say about inhibition for COc1ccc2nc(Nc3nc(CSc4nc5ccccc5[nH]4)cc(=O)[nH]3)nc(C)c2c1 ?
102

So what does the record say about inhibition for COCc1cc(S(=O)c2ccc(Cl)cc2)nc(C)n1 (stereo unspecified) ?
105

So what does the record say about inhibition for CCOC(=O)Oc1c(OC)cc(C(=O)O[C@@H]2C[C@@H]3CN4CCc5c([nH]c6cc(OC)ccc56)[C@H]4C[C@@H]3[C@H](C(=O)OC)[C@H]2OC)cc1OC ?
42.4

So what does the record say about inhibition for O=[N+]([O-])c1ccc(Oc2ccc(F)cc2Br)c2ccncc12 ?
103

So what does the record say about inhibition for COc1ccccc1/C=C/C(=O)c1c2c(c(C)[nH]c1=O)CCCC2 ?
96

So what does the record say about inhibition for O=C(NCCN1CCN(c2ccccc2)CC1)c1cccc(Br)c1 ?
73.9

So what does the record say about inhibition for O=S(=O)(Nc1ccc(Cl)cc1NS(=O)(=O)c1ccccc1)c1ccccc1 ?
85.8

----------
Experiment: inhibitors of PAF-induced NFkB signaling in CF airway cells, dose response, cell-based, uHTS hits, panel, cytotoxicity readout (AID 624344)
Details: CF bronchial epithelial cells, PAF-induced NFkB reporter inhibition, with PAF, run 1; at 79 µM (top of the series) unless noted
Below: a set of entries, each annotated with reported inhibition.
Please respond with the number in % and leave the unit unwritten.

COMPOUND | READING_UNIT | inhibition
CCCCCCCCCc1nc2sc3c(c2c(=O)n1NC(=O)c1ccc([N+](=O)[O-])cc1)CC(C)(C)OC3 | % | 80.5

So what does the record say about inhibition for COc1cc2c(Cc3ccccc3)cncc2cc1O ?
107

So what does the record say about inhibition for O=C(Nc1cccc(Cl)c1)Nc1csc([N+](=O)[O-])c1 ?
114

So what does the record say about inhibition for O=C(Nc1ccccc1)Nc1ncc([N+](=O)[O-])s1 ?
108

So what does the record say about inhibition for O=C1OC(Nc2nc(-c3ccc(F)cc3)cs2)c2ccccc21 (configuration not stated) ?
102

So what does the record say about inhibition for O=[N+]([O-])c1ccc(Oc2ccc(F)cc2)c2ccncc12 ?
99.2

So what does the record say about inhibition for CN(C)CCCN(C(=O)CCOc1ccccc1)c1nc2c(F)cccc2s1 ?
99.3

So what does the record say about inhibition for Cc1cc(C)c(O)c(CN(C)Cc2cc(Cl)cc(Cl)c2O)c1 ?
109

So what does the record say about inhibition for COc1ccc(N(CCCN2C(=O)c3cccc4cccc(c34)C2=O)C(=O)c2ccncc2)cc1 ?
5.78

----------
Experiment: inhibition of Brca1/Bard1 split-luciferase complementation, confirmation, counter-screen for Mdm2/MdmX interaction inhibitor project, luminescence, single concentration (AID 504668)
Conditions: Brca1/Bard1 bimolecular luciferase complementation counterscreen, at 8 µM, stronger effect = higher value
REPORTED_PROPERTY: inhibition (%)
Please respond with the number in % and leave the unit unwritten.

So what does the record say about inhibition for CC1(C)Cc2c(sc(NC(=O)c3ccc(C(=O)c4ccccc4)cc3)c2C(N)=O)C(C)(C)N1 ?
34.2

So what does the record say about inhibition for CC(C)(C)c1cc(NC(=O)CCl)n(-c2ccccc2)n1 ?
24.1

So what does the record say about inhibition for O=C(N/N=C\c1c(O)ccc2ccccc12)c1cncc(Br)c1 ?
26.8

So what does the record say about inhibition for Cc1cc(C)c2nc(NNC(=O)c3ccc(S(=O)(=O)N4CC(C)CC(C)C4)cc3)sc2c1 (configuration not stated) ?
23.2

So what does the record say about inhibition for O=C(CCS(=O)(=O)c1ccc(F)cc1)Nc1nc(-c2ccncc2)cs1 ?
34.2

So what does the record say about inhibition for Cn1cc(C(=O)N/N=C/c2c(O)ccc3ccccc23)ccc1=O ?
27

So what does the record say about inhibition for C=CCc1cccc(/C=N/NC(=O)C(C)Nc2cccc(C)c2)c1O (configuration not stated) ?
34.9

So what does the record say about inhibition for CCOc1cccc2sc(NC(=O)CCS(=O)(=O)c3ccccc3)nc12 ?
35.4
